Molecular target: NEK7 (Homo sapiens (Human), UniProt Q8TDX7+Q96SW2)
Sequence (Q8TDX7 whole entry): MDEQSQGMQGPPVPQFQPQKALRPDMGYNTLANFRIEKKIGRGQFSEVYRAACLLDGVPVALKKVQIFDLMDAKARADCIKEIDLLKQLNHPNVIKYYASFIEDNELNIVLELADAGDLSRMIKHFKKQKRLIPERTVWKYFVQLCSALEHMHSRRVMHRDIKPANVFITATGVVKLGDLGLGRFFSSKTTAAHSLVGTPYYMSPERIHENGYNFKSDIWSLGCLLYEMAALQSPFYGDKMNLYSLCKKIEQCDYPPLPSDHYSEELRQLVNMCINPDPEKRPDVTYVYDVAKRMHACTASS
Sequence (Q96SW2 whole entry): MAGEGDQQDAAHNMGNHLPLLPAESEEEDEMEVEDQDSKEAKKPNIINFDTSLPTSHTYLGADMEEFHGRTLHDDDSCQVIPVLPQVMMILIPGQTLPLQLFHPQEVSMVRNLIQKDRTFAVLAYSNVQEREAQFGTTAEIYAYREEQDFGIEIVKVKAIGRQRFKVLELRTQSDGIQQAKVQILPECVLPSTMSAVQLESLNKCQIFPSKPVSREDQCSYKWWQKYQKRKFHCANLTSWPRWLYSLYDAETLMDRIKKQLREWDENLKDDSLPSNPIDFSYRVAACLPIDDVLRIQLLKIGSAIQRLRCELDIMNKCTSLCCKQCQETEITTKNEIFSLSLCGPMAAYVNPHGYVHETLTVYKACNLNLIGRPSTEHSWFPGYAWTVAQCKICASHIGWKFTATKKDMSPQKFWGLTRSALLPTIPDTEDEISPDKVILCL
Sequence (Q16531 2-1140 partner): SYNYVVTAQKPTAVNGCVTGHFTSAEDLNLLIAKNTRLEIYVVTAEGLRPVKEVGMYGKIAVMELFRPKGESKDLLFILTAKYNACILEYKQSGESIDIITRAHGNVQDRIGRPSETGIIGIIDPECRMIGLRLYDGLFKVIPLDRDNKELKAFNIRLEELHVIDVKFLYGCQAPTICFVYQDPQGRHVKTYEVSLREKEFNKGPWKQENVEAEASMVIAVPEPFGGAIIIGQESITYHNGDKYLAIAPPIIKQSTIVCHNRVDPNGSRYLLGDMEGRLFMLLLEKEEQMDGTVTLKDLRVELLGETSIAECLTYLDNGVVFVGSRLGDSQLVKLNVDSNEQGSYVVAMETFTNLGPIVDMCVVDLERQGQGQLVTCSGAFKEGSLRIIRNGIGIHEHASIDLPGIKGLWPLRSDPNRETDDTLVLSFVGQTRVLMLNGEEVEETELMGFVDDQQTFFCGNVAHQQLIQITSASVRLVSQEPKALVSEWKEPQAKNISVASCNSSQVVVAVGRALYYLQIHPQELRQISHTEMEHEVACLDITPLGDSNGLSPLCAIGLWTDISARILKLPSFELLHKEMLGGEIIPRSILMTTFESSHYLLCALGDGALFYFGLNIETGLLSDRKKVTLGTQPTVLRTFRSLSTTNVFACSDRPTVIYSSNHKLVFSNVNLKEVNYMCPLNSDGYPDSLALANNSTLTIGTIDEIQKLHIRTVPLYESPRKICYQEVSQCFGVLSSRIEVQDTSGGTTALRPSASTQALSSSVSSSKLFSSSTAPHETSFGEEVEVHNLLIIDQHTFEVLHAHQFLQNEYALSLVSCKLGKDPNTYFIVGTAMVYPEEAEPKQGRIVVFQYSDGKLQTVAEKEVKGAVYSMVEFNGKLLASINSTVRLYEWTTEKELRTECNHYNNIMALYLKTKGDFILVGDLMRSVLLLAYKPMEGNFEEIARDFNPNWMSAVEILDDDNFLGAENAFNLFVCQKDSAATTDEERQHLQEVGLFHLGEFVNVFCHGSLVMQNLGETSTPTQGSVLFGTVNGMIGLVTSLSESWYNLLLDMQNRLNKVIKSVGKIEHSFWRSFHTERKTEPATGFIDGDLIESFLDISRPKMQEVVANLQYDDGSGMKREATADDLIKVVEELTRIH
Test: NEK7 NanoBiT degradation assay in Cal51 NEK7 NanoBiT cell line
Format: cell-based
Details: Cal51 NEK7 NanoBiT cells, 24 hours; read-out: NEK7 NanoBiT DC50
Form field: DC50 (one value per entry).
recordedMetric: DC50

compound	experimentalValue
CC(C)(C(=O)NCc1cc(Cl)c(C2CCC(=O)NC2=O)c(Cl)c1)c1ccc(CC#N)nn1 (stereo not shown)	0.635 µM
CC(C)(C(=O)NCc1cc(Cl)c(C2CCC(=O)NC2=O)c(Cl)c1)c1ccc2c(c1)S(=O)(=O)NC2 (stereo not shown)	0.004 µM
CC(C)(C(=O)NCc1cc(Cl)c(C2CCC(=O)NC2=O)c(Cl)c1)C1CCCCC1 (stereo not shown)	0.008 µM
CN1Cc2ccccc2CC1C(=O)NCc1cc(Cl)c(C2CCC(=O)NC2=O)c(Cl)c1 (stereo not shown)	0.054 µM

====

Biological target: NEK7 (Homo sapiens (Human), UniProt Q8TDX7+Q96SW2)
Experiment: NEK7 NanoBiT degradation assay in Cal51 NEK7 NanoBiT cell line
Format: cell-based
Settings: CAL-51; Cal51 NEK7 NanoBiT cells, 24 hours; read-out: NEK7 NanoBiT Dmax
Reported Dmax values for the following molecules.

molecule	Dmax [%]
Cc1cnc(C(C)(C)C(=O)NCc2cc(Cl)c([C@@]3(F)CCC(=O)NC3=O)c(Cl)c2)nc1 (single isomer, unassigned) [Compound 244]	19
CC(C)(C(=O)NCc1cc(Cl)c(C2CCC(=O)NC2=O)c(Cl)c1)c1ccn2ccnc2c1 (stereo not shown) [Compound 55]	97
CC(C)(C(=O)NCc1ccc(C2CCC(=O)NC2=O)c(Cl)c1)c1ccc(Cl)cc1 (stereo not shown) [Compound 101]	95
Cc1nccc(C(C)(C)C(=O)NCc2cc(Cl)c(C3CCC(=O)NC3=O)c(Cl)c2)n1 (stereo not shown) [Compound 150]	53

====

Measured pEC50, listed per entry.
Molecular target: CRBN-DDB1 (Homo sapiens (Human), UniProt Q96SW2)
Sequence (Q96SW2 whole entry): as the sequence (Q96SW2 whole entry) above
Sequence (Q16531 whole entry partner): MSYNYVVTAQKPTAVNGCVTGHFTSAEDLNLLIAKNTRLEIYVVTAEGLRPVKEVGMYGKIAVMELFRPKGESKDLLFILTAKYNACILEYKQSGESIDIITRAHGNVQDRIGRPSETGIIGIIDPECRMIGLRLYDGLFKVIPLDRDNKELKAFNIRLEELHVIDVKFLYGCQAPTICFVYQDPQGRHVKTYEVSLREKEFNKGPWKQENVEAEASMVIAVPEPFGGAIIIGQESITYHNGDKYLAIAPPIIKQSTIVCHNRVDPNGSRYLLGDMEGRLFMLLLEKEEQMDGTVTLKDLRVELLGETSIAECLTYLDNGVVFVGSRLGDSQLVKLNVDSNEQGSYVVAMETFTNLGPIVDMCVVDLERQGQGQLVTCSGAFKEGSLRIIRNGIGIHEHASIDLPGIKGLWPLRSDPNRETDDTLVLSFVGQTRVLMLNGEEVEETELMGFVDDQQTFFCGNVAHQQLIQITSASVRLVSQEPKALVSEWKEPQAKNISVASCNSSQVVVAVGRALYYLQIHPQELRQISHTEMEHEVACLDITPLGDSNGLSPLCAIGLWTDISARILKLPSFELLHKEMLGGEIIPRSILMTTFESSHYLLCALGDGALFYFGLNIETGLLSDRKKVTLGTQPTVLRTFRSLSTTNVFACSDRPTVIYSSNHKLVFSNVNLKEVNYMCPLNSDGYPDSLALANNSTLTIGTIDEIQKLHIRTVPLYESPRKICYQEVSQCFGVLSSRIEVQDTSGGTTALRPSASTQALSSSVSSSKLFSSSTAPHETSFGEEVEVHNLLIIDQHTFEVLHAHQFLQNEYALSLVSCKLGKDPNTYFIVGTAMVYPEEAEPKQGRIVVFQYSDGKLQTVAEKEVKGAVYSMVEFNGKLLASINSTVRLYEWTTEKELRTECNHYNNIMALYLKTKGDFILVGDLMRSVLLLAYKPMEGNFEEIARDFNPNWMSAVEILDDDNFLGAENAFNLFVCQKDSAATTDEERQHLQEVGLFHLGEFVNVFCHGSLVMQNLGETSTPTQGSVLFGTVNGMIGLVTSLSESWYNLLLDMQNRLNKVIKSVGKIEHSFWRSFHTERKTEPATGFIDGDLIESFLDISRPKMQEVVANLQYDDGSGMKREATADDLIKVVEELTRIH
Experiment: Compound binding to CRBN by HTRF assay
pEC50: −log10 of the molar value.

compound	pEC50
Cn1ccc(C2(C(=O)NCc3cc(Cl)c(C4CCC(=O)NC4=O)c(Cl)c3)CCC2)cc1=O (stereo not shown)	6.26
Cc1cnc(C(C)(C)C(=O)NCc2cc(Cl)c(C3CCC(=O)NC3=O)c(Cl)c2)o1 (stereo not shown)	6.60
CC(C)(C(=O)NCc1cc(Cl)c(C2CCC(=O)NC2=O)c(Cl)c1)c1ccc2occc2c1 (stereo not shown)	7.52
Cn1ncc(C(C)(C)C(=O)NCc2cc(Cl)c(C3CCC(=O)NC3=O)c(Cl)c2)cc1=O (stereo not shown)	6.68
CC(C)(C(=O)NCc1cc(Cl)c(C2CCC(=O)NC2=O)c(Cl)c1)c1cc[nH]c(=O)c1 (stereo not shown)	6.74
CC(C)(C(=O)NCc1cc(Cl)c(C2CCC(=O)NC2=O)c(Cl)c1)c1ccnc(C(F)(F)F)c1 (stereo not shown)	6.77
CC(C)(C(=O)NCc1cc(Cl)c(C2CCC(=O)NC2=O)c(Cl)c1)c1ncoc1C(F)(F)F (stereo not shown)	6.85
CC(C)(C(=O)NCc1ccc(C2CCC(=O)NC2=O)c(Cl)c1)c1cccc(F)c1 (stereo not shown)	6.54
CC(C)(C(=O)NCc1cc(Cl)c(C2CCC(=O)NC2=O)c(Cl)c1)c1cc(C2CC2)on1 (stereo not shown)	6.66
CC(C)(C(=O)NCc1cc(Cl)c(C2CCC(=O)NC2=O)c(Cl)c1)c1cnc(OC(F)(F)F)cn1 (stereo not shown)	7.05
CC(C)(C(=O)NCc1cc(Cl)c(C2CCC(=O)NC2=O)c(Cl)c1)c1cnc(C2CC2)cn1 (stereo not shown)	6.82
CC(C)(C(=O)NCc1cc(F)c(C2CCC(=O)NC2=O)c(Cl)c1)c1ccc(C(F)F)nn1 (stereo not shown)	6.54
Cc1cnc(C(C)(C)C(=O)NCc2cc(C)c(C3CCC(=O)NC3=O)c(Cl)c2)nc1 (stereo not shown)	6.28
Cc1cc(C(C)(C)C(=O)NCc2cc(Cl)c(C3CCC(=O)NC3=O)c(Cl)c2)cc(=O)n1C (stereo not shown)	6.72
Cc1coc(C(C)(C)C(=O)NCc2cc(Cl)c(C3CCC(=O)NC3=O)c(Cl)c2)n1 (stereo not shown)	6.92
CC(C)(C(=O)NCc1cc(Cl)c(C2CCC(=O)NC2=O)c(Cl)c1)c1ccn2nccc2c1 (stereo not shown)	7.05

====

Quick reference: Dmax of the listed items.
Molecular target: NEK7 (Homo sapiens (Human), UniProt Q8TDX7+Q96SW2)
Assay: NEK7 NanoBiT degradation assay in Cal51 NEK7 NanoBiT cell line
Format: cell-based
Conditions: CAL-51; Cal51 NEK7 NanoBiT cells, 24 hours; read-out: NEK7 NanoBiT Dmax
Method: Cal51 NEK7 NanoBiT cell line was generated via CRISPR Knock-In of the HiBiT tag in NEK7 gene and stable infection with a lentivirus carrying LgBiT protein. The cell line was generated in house. […] Cells were incubated at 37° C., 5% CO2 for 24 hours and then signal was read on a Pherastar FSX using “LUM plus” optic module with 4095 gain and measurement interval time 0.2 seconds. […]

compound	Dmax (%)
CC(C)(C(=O)NCc1cc(Cl)c(C2CCC(=O)NC2=O)c(Cl)c1)c1cnc(Cl)cn1 (stereo not shown)	95
O=C1CCC(c2c(Cl)cc(CNC(=O)C3(c4ccc5[nH]ncc5c4)CCOCC3)cc2Cl)C(=O)N1 (stereo not shown)	92
Cc1ccc(C(C)(C)C(=O)NCc2cc(F)c(C3CCC(=O)NC3=O)c(Cl)c2)nn1 (stereo not shown)	61
CC(C)(C(=O)NCc1cc(Cl)c(C2CCC(=O)NC2=O)c(Cl)c1)c1cc(F)nc(F)c1 (stereo not shown)	93

====

Target: UniProt:Q96SW2
Experiment: Compound binding to CRBN by HTRF assay
Output: class label from EC50. Mapping: bottom = under 80 nM, middle = from 80 nM up to 200 nM, top = 200 nM and over

compound	category
CC(C)(C(=O)NCc1cc(Cl)c(C2CCC(=O)NC2=O)c(Cl)c1)c1nocc1C1CC1 (stereo not drawn) [Compound 198]	middle
CC(C)(O)c1cnc(C(C)(C)C(=O)NCc2cc(Cl)c(C3CCC(=O)NC3=O)c(Cl)c2)cn1 (stereo not drawn) [Compound 238]	middle
CC(C)(C(=O)NCc1cc(Cl)c(C2CCC(=O)NC2=O)c(Cl)c1)c1ccc2nccnc2c1 (stereo not drawn) [Compound 49]	bottom
CC(C)(C(=O)NCc1cc(Cl)c(C2CCC(=O)NC2=O)c(Cl)c1)c1ccn2ccnc2c1 (stereo not drawn) [Compound 55]	middle
CC(C)(C(=O)NCc1cc(Cl)c([C@@H]2CCC(=O)NC2=O)c(Cl)c1)c1ncccn1 (single isomer, unassigned) [Compound 179]	top
COCc1cnc(C(C)(C)C(=O)NCc2cc(Cl)c(C3CCC(=O)NC3=O)c(Cl)c2)cn1 (stereo not drawn) [Compound 222]	middle
CNS(=O)(=O)c1ccc(C(C)(C)C(=O)NCc2cc(Cl)c(C3CCC(=O)NC3=O)c(Cl)c2)cc1 (stereo not drawn) [Compound 61]	bottom
CC(C)(C(=O)NCc1cc(Cl)c(C2CCC(=O)NC2=O)c(Cl)c1)c1cc2cccnc2cn1 (stereo not drawn) [Compound 190]	middle
CC(C)(C(=O)NCc1cc(Cl)c(C2CCC(=O)NC2=O)c(Cl)c1)c1cnc(CO)cn1 (stereo not drawn) [Compound 206]	middle
CC(C)(C(=O)NCc1cc(Cl)c(C2CCC(=O)NC2=O)c(Cl)c1)c1nnc(C(F)F)o1 (stereo not drawn) [Compound 200]	middle
CC(C)(C(=O)NCc1cc(F)c(C2CCC(=O)NC2=O)c(Cl)c1)c1ccc(OC(F)(F)F)nn1 (stereo not drawn) [Compound 272]	top

====

Molecular target: NEK7 (Homo sapiens (Human), UniProt Q8TDX7+Q96SW2)
Assay: NEK7 NanoBiT degradation assay in Cal51 NEK7 NanoBiT cell line
Format: cell-based
Conditions: Cal51 NEK7 NanoBiT cells, 24 hours; read-out: NEK7 NanoBiT DC50
Doc: threshold 0.002 µM (exclusive). Items with DC50 beneath it return 1 (yes); others return 0 (no).

compound	category
Cc1cnc(C(C)(C)C(=O)NCc2cc(Cl)c(C3CCC(=O)NC3=O)c(Cl)c2)cn1 (stereo not drawn)	0 (no)
CC(C)(C(=O)NCc1cc(Cl)c(C2CCC(=O)NC2=O)c(Cl)c1)c1c(F)cccc1F (stereo not drawn)	1 (yes)
CCOc1cnc(C(C)(C)C(=O)NCc2cc(Cl)c(C3CCC(=O)NC3=O)c(Cl)c2)cn1 (stereo not drawn)	1 (yes)
CC(C)(C(=O)NCc1cc(Cl)c([C@H]2CCC(=O)NC2=O)c(Cl)c1)c1ncc(C#N)cn1 (single isomer, unassigned)	0 (no)
CC(C)(C(=O)NCc1cc(F)c(C2CCC(=O)NC2=O)c(Cl)c1)c1ccc(C(F)F)nn1 (stereo not drawn)	0 (no)
CC(C)(C(=O)NCc1ccc(C2CCC(=O)NC2=O)c(Cl)c1)c1ccccc1 (stereo not drawn)	0 (no)
COc1nc(C(C)(C)C(=O)NCc2cc(Cl)c(C3CCC(=O)NC3=O)c(Cl)c2)ncc1C (stereo not drawn)	0 (no)
CC(C)(C(=O)NCc1cc(Cl)c(C2CCC(=O)NC2=O)c(Cl)c1)c1nccc(C(F)(F)F)n1 (stereo not drawn)	0 (no)
CC(C)(C(=O)NCc1cc(Cl)c(C2CCC(=O)NC2=O)c(Cl)c1)c1ccon1 (stereo not drawn)	0 (no)
CC(C)(C(=O)NCc1cc(Cl)c(C2CCC(=O)NC2=O)c(Cl)c1)c1cncc(F)c1 (stereo not drawn)	0 (no)
CC(C)(C(=O)NCc1cc(Cl)c(C2CCC(=O)NC2=O)c(Cl)c1)N1Cc2ccccc2C1 (stereo not drawn)	0 (no)
